Cited source for all entries: patent US20240000746A1

This listing pairs compounds with measured Relative TRPM8 activation (%).
target: human TRPM8 receptor (Homo sapiens); construct: expressed in transfected cells; assay: Assay on TRPM8 modulators: Ca2+ signal (Fluo-4) in HEK293 cells stably transfected with human TRPM8; assay type: cell-based; set-up: concentration or dose not given beside the values
Sequence (Q7Z2W7 whole entry): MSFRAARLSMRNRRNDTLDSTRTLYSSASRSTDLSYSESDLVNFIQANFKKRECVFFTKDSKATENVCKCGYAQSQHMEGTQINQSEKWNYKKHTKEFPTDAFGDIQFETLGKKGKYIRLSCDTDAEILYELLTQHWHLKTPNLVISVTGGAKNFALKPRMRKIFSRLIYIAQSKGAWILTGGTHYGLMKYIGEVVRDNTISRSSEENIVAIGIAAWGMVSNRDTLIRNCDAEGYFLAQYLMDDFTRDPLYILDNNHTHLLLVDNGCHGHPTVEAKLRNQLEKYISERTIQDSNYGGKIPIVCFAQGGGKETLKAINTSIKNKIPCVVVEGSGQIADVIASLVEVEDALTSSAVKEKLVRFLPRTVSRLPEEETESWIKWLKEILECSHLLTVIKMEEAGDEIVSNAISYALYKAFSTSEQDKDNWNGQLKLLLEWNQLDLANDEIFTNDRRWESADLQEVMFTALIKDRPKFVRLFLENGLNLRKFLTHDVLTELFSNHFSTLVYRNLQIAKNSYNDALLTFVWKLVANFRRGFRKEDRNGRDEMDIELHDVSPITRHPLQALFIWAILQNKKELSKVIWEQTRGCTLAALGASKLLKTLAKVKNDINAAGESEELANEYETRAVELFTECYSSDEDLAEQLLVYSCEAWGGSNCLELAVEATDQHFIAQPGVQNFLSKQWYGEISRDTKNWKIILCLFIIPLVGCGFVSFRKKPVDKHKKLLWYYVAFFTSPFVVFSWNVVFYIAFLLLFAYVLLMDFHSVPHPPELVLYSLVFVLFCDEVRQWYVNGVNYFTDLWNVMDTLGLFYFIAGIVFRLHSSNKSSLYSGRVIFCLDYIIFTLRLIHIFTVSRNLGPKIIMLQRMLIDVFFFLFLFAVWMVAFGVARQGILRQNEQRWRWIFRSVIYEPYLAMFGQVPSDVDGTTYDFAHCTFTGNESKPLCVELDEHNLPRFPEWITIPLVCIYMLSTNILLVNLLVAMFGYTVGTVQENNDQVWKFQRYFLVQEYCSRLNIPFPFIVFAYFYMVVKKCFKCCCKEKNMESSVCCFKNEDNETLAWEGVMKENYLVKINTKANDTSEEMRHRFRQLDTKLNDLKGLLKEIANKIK
Answer in %, number only, no unit symbol.

CCN(Cc1ccnc(N2CCC(C)CC2)c1)Cc1cccc2c1OCO2	3.4
c1cc(CNCc2cc3ccccc3o2)c2c(c1)OCO2	1.3
Cc1ccc(N2CCC(C(=O)NCc3cccc4c3OCO4)CC2)nc1	2.4

We next turn to a different compound, shown below.
// sample c1ccc(-c2cccc(CNCc3cccc4c3OCO4)c2)nc1 , its Relative TRPM8 activation (%) was 3.6
